- assay system: vanilloid receptor (VR1) (Homo sapiens, UniProt Q8NER1)
- Construct: expressed in transfected cells; host or cells: CHO-K1 cells (ECACC), stably transfected
- method summary: Functional FLIPR Ca2+ influx assay in CHO-K1 cells transfected with the VR1 gene, capsaicin stimulus (Pharmacological Method II)
- Type: cell-based
- conditions used: @ 5 μM, read-out: inhibition (in percent), Human Capsaicin
measured parameter: inhibition at 5 µM (%)

A selection of reference data follows.
1) CC1CCN(c2nc(C(F)(F)F)ccc2CNC(=O)C2(c3ccc(NS(C)(=O)=O)c(F)c3)CCCC2)CC1; 25
2) CC1CCN(c2nc(C(F)(F)F)ccc2CNC(=O)C2(c3ccc(NS(C)(=O)=O)c(F)c3)CCCCC2)CC1; 33
3) CCC(C)(C(=O)NCc1ccc(C(F)(F)F)nc1SC1CCCCC1)c1ccc(NS(C)(=O)=O)c(F)c1 (stereo not drawn); 80

1 = Cc1ccc(CC(C(=O)NCc2ccc(C(F)(F)F)nc2N2CCC(C)CC2)c2ccc(NS(C)(=O)=O)c(F)c2)cc1 (stereo not drawn)
2 = CS(=O)(=O)Nc1ccc(C(C(=O)NCc2ccc(C(F)(F)F)nc2SC2CCCCC2)C2CCCCC2)cc1F (stereo not drawn)
3 = CS(=O)(=O)Nc1ccc(C2(C(=O)NCc3ccc(C(F)(F)F)nc3SC3CCCCC3)CCCC2)cc1F
Arrange the 3 molecules from largest to smallest inhibition at 5 µM. List each label, following the requested order.
3, 2, 1

###

- assay system: vanilloid receptor (VR1) (Homo sapiens)
- method summary: Functional FLIPR Ca2+ influx assay in CHO-K1 cells transfected with the VR1 gene, capsaicin stimulus (Pharmacological Method II)
measured parameter: Ki (nM)

Previously resolved entries follow.
1) CC1CCN(c2nc(C(F)(F)F)ccc2CNC(=O)C(c2ccc(NS(C)(=O)=O)c(F)c2)C2CCCC2)CC1 (stereo not shown) [Example 21]; 88.7
2) CC(C)(C(=O)NCc1ccc(C(F)(F)F)nc1SC1CCCCC1)c1ccc(NS(C)(=O)=O)c(F)c1 [Example 6]; 65.7
3) Cc1cccc(C(C(=O)NCc2ccc(C(F)(F)F)nc2N2CCC(C)CC2)c2ccc(NS(C)(=O)=O)c(F)c2)c1 (stereo not shown) [Example 41]; 0.1

1 = CS(=O)(=O)Nc1ccc(C(C(=O)NCc2ccc(C(F)(F)F)nc2SC2CCCCC2)C2CCCC2)cc1F (stereo not shown) [Example 22]
2 = Cc1ccccc1C(C(=O)NCc1ccc(C(F)(F)F)nc1N1CCC(C)CC1)c1ccc(NS(C)(=O)=O)c(F)c1 (stereo not shown) [Example 40]
Quick one: lower Ki, 1 or 2 ? Mark your selection by writing its label.
2

I = CCC(C)(C(=O)NCc1ccc(C(F)(F)F)nc1N1CCC(C)CC1)c1ccc(NS(C)(=O)=O)c(F)c1 (stereo not shown) [Example 7]
II = CC1CCN(c2nc(C(F)(F)F)ccc2CNC(=O)C(c2ccc(F)cc2)c2ccc(NS(C)(=O)=O)c(F)c2)CC1 (stereo not shown) [Example 35]
Parameter check: reported Ki is higher for which label, I or II ? // output: label of the selected item
I
(I: 124 nM, II: 3.4 nM)

P = CC1CCN(c2nc(C(F)(F)F)ccc2CNC(=O)C(c2ccc(NS(C)(=O)=O)c(F)c2)C2CCCCC2)CC1 (stereo not shown) [Example 1]
Q = CS(=O)(=O)Nc1ccc(C(C(=O)NCc2ccc(C(F)(F)F)nc2SC2CCCCC2)c2ccccc2)cc1F (stereo not shown) [Example 4]
R = Cc1ccc(C(C(=O)NCc2ccc(C(F)(F)F)nc2N2CCC(C)CC2)c2ccc(NS(C)(=O)=O)c(F)c2)cc1 (stereo not shown) [Example 42]
Write the entries in order, lowest recorded Ki first. Response field: labels, in requested order.
R, P, Q
(R: 1.1 nM, P: 31.1 nM, Q: 62.5 nM)

###

- assay system: vanilloid receptor 1 (VR1/TRPV1) (Rattus norvegicus, UniProt O35433)
- Construct: The vertebral column is removed from decapitated rats; from tissue; host or cells: primary cells from rat dorsal root ganglia (DRG)
- Sequence (O35433 whole entry): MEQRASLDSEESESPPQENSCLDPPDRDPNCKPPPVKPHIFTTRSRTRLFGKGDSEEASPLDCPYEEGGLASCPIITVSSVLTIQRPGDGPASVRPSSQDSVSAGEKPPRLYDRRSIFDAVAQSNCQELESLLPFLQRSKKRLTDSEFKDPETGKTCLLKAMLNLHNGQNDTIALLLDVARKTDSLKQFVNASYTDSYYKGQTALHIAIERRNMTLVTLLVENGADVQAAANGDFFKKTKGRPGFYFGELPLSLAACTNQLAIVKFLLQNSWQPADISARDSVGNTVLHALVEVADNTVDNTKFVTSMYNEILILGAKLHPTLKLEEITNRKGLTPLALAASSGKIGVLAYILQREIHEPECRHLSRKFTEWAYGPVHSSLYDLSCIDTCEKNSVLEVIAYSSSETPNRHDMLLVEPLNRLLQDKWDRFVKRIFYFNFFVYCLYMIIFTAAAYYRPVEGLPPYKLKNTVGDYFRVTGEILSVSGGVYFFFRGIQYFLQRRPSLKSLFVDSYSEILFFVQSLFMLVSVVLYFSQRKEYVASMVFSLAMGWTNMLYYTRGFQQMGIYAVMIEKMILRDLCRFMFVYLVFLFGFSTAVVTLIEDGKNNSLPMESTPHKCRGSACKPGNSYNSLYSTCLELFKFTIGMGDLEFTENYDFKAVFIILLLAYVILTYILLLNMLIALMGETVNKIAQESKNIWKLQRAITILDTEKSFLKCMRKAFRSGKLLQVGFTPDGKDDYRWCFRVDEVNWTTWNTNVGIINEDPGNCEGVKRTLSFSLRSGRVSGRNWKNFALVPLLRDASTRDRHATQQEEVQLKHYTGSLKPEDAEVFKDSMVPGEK
- method summary: Functional FLIPR Ca2+ influx assay on vanilloid receptor 1, capsaicin stimulus (Pharmacological Method I)
- Format: cell-based
- conditions used: @ 5 μM, capsaicin, read-out: inhibition (in percent), Rat Capsaicin
measured parameter: inhibition at 5 µM (%)

Recorded inhibition at 5 µM, per entry:
1. CCC(C)(C(=O)NCc1ccc(C(F)(F)F)nc1SC1CCCCC1)c1ccc(NS(C)(=O)=O)c(F)c1 (stereo not shown); 99
2. CS(=O)(=O)Nc1ccc(C2(C(=O)NCc3ccc(C(F)(F)F)nc3SC3CCCCC3)CCCCC2)cc1F; 69

I = CC1CCN(c2nc(C(F)(F)F)ccc2CNC(=O)C2(c3ccc(NS(C)(=O)=O)c(F)c3)CCCCC2)CC1
II = CC1CCN(c2nc(C(F)(F)F)ccc2CNC(=O)C2(c3ccc(NS(C)(=O)=O)c(F)c3)CCCC2)CC1
Response body: label of entry with the larger inhibition at 5 µM; valid values I , II . Field: selected label. Fill in the label of the entry you choose.
I

###

- assay system: vanilloid receptor 1 (VR1/TRPV1-Receptor) (Homo sapiens, UniProt Q8NER1)
- Sequence (Q8NER1 whole entry): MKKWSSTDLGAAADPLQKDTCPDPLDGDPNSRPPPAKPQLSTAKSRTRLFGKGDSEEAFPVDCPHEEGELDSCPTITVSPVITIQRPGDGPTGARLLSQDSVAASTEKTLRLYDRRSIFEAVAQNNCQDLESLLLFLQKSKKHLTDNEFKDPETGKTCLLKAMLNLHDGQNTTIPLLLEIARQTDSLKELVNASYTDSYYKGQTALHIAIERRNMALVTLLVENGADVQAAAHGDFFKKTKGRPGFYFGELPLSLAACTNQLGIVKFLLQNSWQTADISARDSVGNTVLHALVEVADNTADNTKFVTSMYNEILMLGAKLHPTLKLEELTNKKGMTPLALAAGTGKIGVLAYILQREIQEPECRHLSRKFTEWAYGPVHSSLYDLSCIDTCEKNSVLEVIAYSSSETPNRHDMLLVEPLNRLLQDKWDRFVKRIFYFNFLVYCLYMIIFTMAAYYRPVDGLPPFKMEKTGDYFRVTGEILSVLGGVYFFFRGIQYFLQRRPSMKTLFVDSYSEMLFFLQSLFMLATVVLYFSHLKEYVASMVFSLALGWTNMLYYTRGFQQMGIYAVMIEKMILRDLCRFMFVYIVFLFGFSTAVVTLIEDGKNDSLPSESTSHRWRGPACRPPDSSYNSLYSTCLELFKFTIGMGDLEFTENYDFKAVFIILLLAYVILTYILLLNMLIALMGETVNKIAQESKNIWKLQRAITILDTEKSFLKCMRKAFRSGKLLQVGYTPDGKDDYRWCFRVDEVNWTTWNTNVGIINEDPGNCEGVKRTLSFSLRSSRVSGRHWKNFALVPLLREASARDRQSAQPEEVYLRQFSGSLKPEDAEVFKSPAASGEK
- method summary: VR1 functional assay following pH-stimulus
measured parameter: IC50 (nM)

Before answering, review these 2 worked examples.
1) Cc1ccccc1C(C(=O)NCc1ccc(C(F)(F)F)nc1N1CCC(C)CC1)c1ccc(NS(C)(=O)=O)c(F)c1 (stereo not shown); 3140
2) CC1CCN(c2nc(C(F)(F)F)ccc2CNC(=O)C(c2ccc(F)cc2)c2ccc(NS(C)(=O)=O)c(F)c2)CC1 (stereo not shown); 246

1 = CC1CCN(c2nc(C(F)(F)F)ccc2CNC(=O)C(c2ccc(NS(C)(=O)=O)c(F)c2)C2CCCC2)CC1 (stereo not shown)
2 = Cc1ccc(C(C(=O)NCc2ccc(C(F)(F)F)nc2N2CCC(C)CC2)c2ccc(NS(C)(=O)=O)c(F)c2)cc1 (stereo not shown)
Lab notebook, comparison: 1 versus 2 , higher IC50 goes to which? Refer to your chosen entry by its label in the reply.
1

###

- assay system: vanilloid receptor 1 (VR1/TRPV1) (Rattus norvegicus)
- Construct: The vertebral column is removed from decapitated rats
- method summary: Functional FLIPR Ca2+ influx assay on vanilloid receptor 1, capsaicin stimulus (Pharmacological Method I)
- conditions used: capsaicin stimulus
measured parameter: Ki (nM)

// below: answered compounds
1. CC1CCN(c2nc(C(F)(F)F)ccc2CNC(=O)C(C)(C)c2ccc(NS(C)(=O)=O)c(F)c2)CC1 [Example 5]; 45.5
2. CCC(C)(C(=O)NCc1ccc(C(F)(F)F)nc1N1CCC(C)CC1)c1ccc(NS(C)(=O)=O)c(F)c1 (stereo not drawn) [Example 7]; 37.8
3. Cc1ccc(CC(C(=O)NCc2ccc(C(F)(F)F)nc2N2CCC(C)CC2)c2ccc(NS(C)(=O)=O)c(F)c2)cc1 (stereo not drawn) [Example 77]; 158

P = CC1CCN(c2nc(C(F)(F)F)ccc2CNC(=O)C(c2ccc(F)cc2)c2ccc(NS(C)(=O)=O)c(F)c2)CC1 (stereo not drawn) [Example 35]
Q = CS(=O)(=O)Nc1ccc(C(C(=O)NCc2ccc(C(F)(F)F)nc2SC2CCCCC2)C2CCCCC2)cc1F (stereo not drawn) [Example 2]
R = Cc1cccc(C(C(=O)NCc2ccc(C(F)(F)F)nc2N2CCC(C)CC2)c2ccc(NS(C)(=O)=O)c(F)c2)c1 (stereo not drawn) [Example 41]
Order the records, beginning with the lowest Ki and ending with the highest. Your reply should list the labels following the order given in the request.
R, P, Q

P = CS(=O)(=O)Nc1ccc(C(C(=O)NCc2ccc(C(F)(F)F)nc2SC2CCCCC2)C2CCCC2)cc1F (stereo not drawn) [Example 22]
Q = CC1CCN(c2nc(C(F)(F)F)ccc2CNC(=O)C(c2ccc(NS(C)(=O)=O)c(F)c2)C2CCCC2)CC1 (stereo not drawn) [Example 21]
R = Cc1ccc(C(C(=O)NCc2ccc(C(F)(F)F)nc2N2CCC(C)CC2)c2ccc(NS(C)(=O)=O)c(F)c2)cc1 (stereo not drawn) [Example 42]
S = CS(=O)(=O)Nc1ccc(C2(C(=O)NCc3ccc(C(F)(F)F)nc3SC3CCCCC3)CCCC2)cc1F [Example 14]
Order the entries by their reported Ki, beginning at the minimum. Give the labels in the order requested.
R, Q, P, S
(R: 6.3 nM, Q: 20.6 nM, P: 31.3 nM, S: 117 nM)

1 = CC(C)(C(=O)NCc1ccc(C(F)(F)F)nc1SC1CCCCC1)c1ccc(NS(C)(=O)=O)c(F)c1 [Example 6]
2 = Cc1ccccc1C(C(=O)NCc1ccc(C(F)(F)F)nc1N1CCC(C)CC1)c1ccc(NS(C)(=O)=O)c(F)c1 (stereo not drawn) [Example 40]
Choose between 1 and 2 : whose measured Ki value is numerically larger? Answer by quoting the chosen item's label.
2
(2: 109 nM, 1: 34.9 nM)
